# APPLIED_CONDITIONS: human gut metagenome, 24 h, 2 µM; note: call rule not given here;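 note: incubated anaerobically, with remaining drug quantified by LC–MS at nine sampling points across the 24 h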
PROPERTY: Bacterial Biotransformation

In the examples that follow, each entry is paired with its recorded Bacterial Biotransformation.
MOLECULE	VALUE_OBSERVED
CC(CN(C)C)CN1c2ccccc2CCc2ccccc21.O=C(O)/C=C\C(=O)O (centres undefined) [TRIMIPRAMINE MALEATE]	Compound NOT metabolized
CC(C)(C)NC[C@H](O)COc1ccccc1C1CCCC1.CC(C)(C)NC[C@H](O)COc1ccccc1C1CCCC1.O=S(=O)(O)O [PENBUTOLOL SULFATE]	Compound metabolized
c1ccc([C@H]2CN3CCSC3=N2)cc1	Compound metabolized
Cc1nc2n(c(=O)c1CCN1CCC(c3noc4cc(F)ccc34)CC1)CCCC2	Compound metabolized
CCN1CCCC1CNC(=O)c1cc(S(N)(=O)=O)ccc1OC (centres undefined) [SULPIRIDE]	Compound NOT metabolized
CN/C(=N/CCSCc1nc[nH]c1C)NC#N	Compound NOT metabolized

Requested field: Bacterial Biotransformation. Item: CCOC(=O)[C@H](CCc1ccccc1)N[C@@H](C)C(=O)N1[C@H](C(=O)O)C[C@@H]2CCC[C@@H]21 Compound metabolized

Requested field: Bacterial Biotransformation. Item: CN1CC(=O)N2[C@H](c3ccc4c(c3)OCO4)c3[nH]c4ccccc4c3C[C@@H]2C1=O Compound NOT metabolized

Requested field: Bacterial Biotransformation. Item: NC12CC3CC(CC(C3)C1)C2 Compound NOT metabolized

Requested field: Bacterial Biotransformation. Item: CCN(CC)CC#CCOC(=O)C(O)(c1ccccc1)C1CCCCC1.Cl (centres undefined) [OXYBUTYNIN CHLORIDE] Compound NOT metabolized

Requested field: Bacterial Biotransformation. Item: Fc1ccc([C@@H]2CCNC[C@H]2COc2ccc3c(c2)OCO3)cc1 Compound NOT metabolized

Requested field: Bacterial Biotransformation. Item: COc1cc2nc(N3CCN(C(=O)c4ccco4)CC3)nc(N)c2cc1OC Compound NOT metabolized

Requested field: Bacterial Biotransformation. Item: Cc1ccc(-c2nc3ccc(C)cn3c2CC(=O)N(C)C)cc1 Compound NOT metabolized

Requested field: Bacterial Biotransformation. Item: COc1ccc2[nH]c([S+]([O-])Cc3ncc(C)c(OC)c3C)nc2c1 (centres undefined) Compound metabolized

Requested field: Bacterial Biotransformation. Item: CN1CCc2cccc3c2[C@H]1Cc1ccc(O)c(O)c1-3 Compound NOT metabolized

Requested field: Bacterial Biotransformation. Item: CC(C)OC(=O)C(C)(C)Oc1ccc(C(=O)c2ccc(Cl)cc2)cc1 [FENOFIBRATE] Compound metabolized

Requested field: Bacterial Biotransformation. Item: CC(CN1c2ccccc2Sc2ccccc21)N(C)C (centres undefined) Compound NOT metabolized

Requested field: Bacterial Biotransformation. Item: CC(C)(C(=O)O)c1ccc(C(O)CCCN2CCC(C(O)(c3ccccc3)c3ccccc3)CC2)cc1 (centres undefined) [FEXOFENADINE] Compound NOT metabolized

Requested field: Bacterial Biotransformation. Item: CN1CCN(CC/C=C2/c3ccccc3Sc3ccc(S(=O)(=O)N(C)C)cc32)CC1 Compound metabolized
